Kindly state pIC50 for each of the entries shown.
target: KRAS G12V (Homo sapiens (Human), UniProt P01116+P62937, G12V); assay: Ras-Raf disruption/FRET/MOA assay (BRAF RBD, Cyclophilin A); assay type: biochemical; settings: read-out: KRAS G12V FRET IC50
Sequence (P01116 other isoform, or with tags, fused parts or gaps G12V): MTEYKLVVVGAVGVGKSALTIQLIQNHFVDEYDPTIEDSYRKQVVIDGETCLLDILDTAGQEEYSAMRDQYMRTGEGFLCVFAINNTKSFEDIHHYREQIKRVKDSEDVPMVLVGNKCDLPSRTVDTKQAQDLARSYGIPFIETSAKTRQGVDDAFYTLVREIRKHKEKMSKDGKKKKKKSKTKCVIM
Sequence (P62937 whole entry): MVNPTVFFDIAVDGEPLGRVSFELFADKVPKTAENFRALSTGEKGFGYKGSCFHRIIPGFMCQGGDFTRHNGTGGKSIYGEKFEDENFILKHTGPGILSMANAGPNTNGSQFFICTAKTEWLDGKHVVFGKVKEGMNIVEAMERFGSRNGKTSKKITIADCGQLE
pIC50: −log10 of the molar value.

Looking up "CCn1c(-c2cccnc2[C@H](C)OC)c2c3cc(ccc31)-c1cc(O)cc(c1)C[C@H](NC(=O)[C@H](C(C)C)N(C)C(=O)[C@@H]1CCN(C(=O)OC)C1)C(=O)N1CCC[C@H](N1)C(=O)OCC(C)(C)C2" , I see its pIC50 listed as 7.00 to 8.00

Notebook: "CCn1c(-c2cccnc2[C@H](C)OC)c2c3cc(ccc31)-c1cc(O)cc(c1)C[C@H](NC(=O)[C@H]1C[C@@H]1C)C(=O)N1CCC[C@H](N1)C(=O)OCC(C)(C)C2" , pIC50 read as 5.00 to 6.00

In plain terms, "CCn1c(-c2cc(N3CCN(C)CC3)cnc2[C@H](C)OC)c2c3cc(ccc31)-c1csc(n1)C[C@H](NC(=O)[C@H](C(C)C)N(C)C(=O)[C@@H]1CCCS1(=O)=O)C(=O)N1CCC[C@H](N1)C(=O)OCC(C)(C)C2" has a documented pIC50 of 5.00 to 6.00

Entry "CCn1c(-c2cccnc2[C@H](C)OC)c2c3cc(ccc31)-c1csc(n1)[C@@H](OCC1CCN(C)CC1)[C@H](NC(=O)[C@H]1C[C@@H]1C)C(=O)N1CCC[C@H](N1)C(=O)OCC(C)(C)C2" ; pIC50 = 6.00 to 7.00

* * *

molecular target: KRAS G12S (Homo sapiens (Human), UniProt P01116+P62937, G12S); experiment: Ras-Raf disruption/FRET/MOA assay (BRAF RBD, Cyclophilin A); format: biochemical; details: read-out: KRAS G12S FRET IC50
Sequence (P01116 other isoform, or with tags, fused parts or gaps G12S): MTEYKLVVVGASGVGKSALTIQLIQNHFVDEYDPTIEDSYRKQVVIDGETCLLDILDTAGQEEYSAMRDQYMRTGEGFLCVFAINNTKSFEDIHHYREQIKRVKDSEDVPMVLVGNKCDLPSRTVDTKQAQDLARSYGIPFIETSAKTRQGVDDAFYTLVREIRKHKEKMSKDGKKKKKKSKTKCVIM
Sequence (P62937 whole entry): as the sequence (P62937 whole entry) above
pIC50: −log10 of the molar value.
MEASUREMENT KIND: pIC50

Measured pIC50 of "CCn1c(-c2cccnc2[C@H](C)OC)c2c3cc(ccc31)-c1csc(n1)C[C@H](NC(=O)[C@H](C(C)C)N(C)C(=O)N(C)C1COC1)C(=O)N1CCC[C@H](N1)C(=O)OCC(C)(C)C2" : 6.00 to 7.00

The measured pIC50 associated with "CCn1c(-c2cccnc2[C@H](C)OC)c2c3cc(ccc31)-c1cc(O)cc(c1)C[C@H](NC(=O)[C@@H](C(C)C)N(C)C(C)=O)C(=O)N1CCC[C@H](N1)C(=O)OCC(C)(C)C2" reads 5.00 to 6.00

The molecule identified as "CCn1c(-c2cccnc2[C@H](C)OC)c2c3cc(ccc31)-c1cc(O)cc(c1)C[C@H](NC(=O)[C@H](C(C)C)N(C)C(=O)[C@H]1CCCC[C@@H]1N)C(=O)N1CCC[C@H](N1)C(=O)OCC(C)(C)C2" registered its pIC50 at 6.00 to 7.00

Lab book: pIC50 of "CCn1c(-c2cccnc2[C@H](C)OC)c2c3cc(ccc31)-c1csc(n1)C[C@H](NC(=O)[C@H](C(C)C)N(C)C(=O)N1CCN(C(=O)[C@@H]3CCCN3C)CC1)C(=O)N1CCC[C@H](N1)C(=O)OCC(C)(C)C2" noted as 6.00 to 7.00

pIC50 for "CCn1c(-c2cccnc2[C@H](C)OC)c2c3cc(ccc31)-c1csc(n1)C[C@H](NC(=O)[C@H](C(C)C)N(C)C(=O)N1CCO[C@@H](CN(C)C)C1)C(=O)N1CCC[C@H](N1)C(=O)OCC(C)(C)C2" is 6.00 to 7.00

For record "CCn1c(-c2cccnc2[C@H](C)OC)c2c3cc(ccc31)-c1cc(O)cc(c1)C[C@H](NC(=O)[C@H](C(C)C)N(C)C(=O)C1CCCC1)C(=O)N1CCC[C@H](N1)C(=O)OCC(C)(C)C2" the listed pIC50 is 7.00 to 8.00

Entry "CCn1c(-c2cccnc2[C@H](C)OC)c2c3cc(ccc31)-c1csc(n1)C[C@H](NC(=O)[C@H](C(C)C)N(C)C(=O)N1C[C@@H]3C[C@H]1CN3C)C(=O)N1CCC[C@H](N1)C(=O)OCC(C)(C)C2" , pIC50 reported as 6.00 to 7.00

Per the record, "CCn1c(-c2cccnc2[C@H](C)OC)c2c3cc(ccc31)-c1cc(O)cc(c1)C[C@H](NC(=O)[C@H](C(C)C)N(C)C(=O)[C@H]1CCN(C(=O)OC3CN(C)C3)C1)C(=O)N1CCC[C@H](N1)C(=O)OCC(C)(C)C2" has pIC50 of 7.00 to 8.00

For "CCN(CC)C(=O)N(C)[C@H](C(=O)N[C@H]1Cc2nc(cs2)-c2ccc3c(c2)c(c(-c2cccnc2[C@H](C)OC)n3CC)CC(C)(C)COC(=O)[C@@H]2CCCN(N2)C1=O)C(C)C" the molecule record lists pIC50 as 7.00 to 8.00

* * *

molecular target: NRAS G12C (Homo sapiens (Human), UniProt P01111+P62937, G12C); experiment: Ras-Raf disruption/FRET/MOA assay (BRAF RBD, Cyclophilin A); type: biochemical; details: read-out: NRAS G12C FRET data IC50
Sequence (P01111 whole entry G12C): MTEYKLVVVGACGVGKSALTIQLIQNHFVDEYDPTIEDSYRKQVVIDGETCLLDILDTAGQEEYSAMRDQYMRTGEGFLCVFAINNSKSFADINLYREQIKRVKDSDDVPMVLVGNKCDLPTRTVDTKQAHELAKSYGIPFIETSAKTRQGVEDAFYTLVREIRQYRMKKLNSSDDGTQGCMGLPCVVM
Sequence (P62937 whole entry): as the sequence (P62937 whole entry) above
pIC50: −log10 of the molar value.
Exercise: for every item that follows, state its recorded pIC50.

Lookup result for CCn1c(-c2cccnc2[C@H](C)OC)c2c3cc(ccc31)-c1cc(O)cc(c1)C[C@H](NC(=O)[C@H](C(C)C)N(C)C(=O)C1CC(=O)N(C3CC3)C1)C(=O)N1CCC[C@H](N1)C(=O)OCC(C)(C)C2 (some centres unmarked) ; measured pIC50: 7.00 to 8.00

So, "CCn1c(-c2cccnc2[C@H](C)OC)c2c3cc(ccc31)-c1cc(O)cc(c1)C[C@H](NC(=O)[C@H](C(C)C)N(C)C(=O)[C@H]1CCCC[C@H]1N)C(=O)N1CCC[C@H](N1)C(=O)OCC(C)(C)C2" ? Its pIC50 was 7.00 to 8.00

For record "CCn1c(-c2cccnc2[C@H](C)OC)c2c3cc(ccc31)-c1cc(O)cc(c1)C[C@H](NC(=O)[C@@H]1[C@H](C)CCN1C(C)=O)C(=O)N1CCC[C@H](N1)C(=O)OCC(C)(C)C2" the listed pIC50 is 5.00 to 6.00

Record summary for "CCn1c(-c2cccnc2[C@H](C)OC)c2c3cc(ccc31)-c1cc(O)cc(c1)C[C@H](NC(=O)[C@@H]1[C@H]3C[C@H]3CN1C(C)=O)C(=O)N1CCC[C@H](N1)C(=O)OCC(C)(C)C2" : reported pIC50 = 5.00 to 6.00

Looking up "CCn1c(-c2cnccc2COC)c2c3cc(ccc31)-c1cc(O)cc(c1)C[C@H](NC(=O)[C@H](C(C)C)N(C)C(=O)[C@H]1CCN(C3CCOCC3)C1)C(=O)N1CCC[C@H](N1)C(=O)OCC(C)(C)C2" , I see its pIC50 listed as 5.00 to 6.00

* * *

biological target: KRAS G13C (Homo sapiens (Human), UniProt P01116+P62937, G13C); test: Ras-Raf disruption/FRET/MOA assay, KRAS G13C; assay type: biochemical; settings: read-out: KRAS G13C FRET IC50
Sequence (P01116 other isoform, or with tags, fused parts or gaps G13C): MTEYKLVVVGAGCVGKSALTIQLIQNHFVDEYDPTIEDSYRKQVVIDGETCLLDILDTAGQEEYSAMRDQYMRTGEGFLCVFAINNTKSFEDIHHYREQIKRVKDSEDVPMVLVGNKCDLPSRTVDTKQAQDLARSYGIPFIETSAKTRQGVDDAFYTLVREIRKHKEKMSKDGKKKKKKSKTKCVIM
Sequence (P62937 whole entry): as the sequence (P62937 whole entry) above
MEASUREMENT KIND: IC50

// IC50 lookup, molecule = CCn1c(-c2cnccc2COC)c2c3cc(ccc31)-c1cccc(c1)C[C@H](NC(=O)[C@H](C(C)C)N(C)C(=O)CCN=C=NCc1c(OC)cccc1OC)C(=O)N1CCC[C@H](N1)C(=O)OCC(C)(C)C2 [Example 75] , result: > 10 µM

Entry under test: CCn1c(-c2cnccc2COC)c2c3cc(ccc31)-c1cc(O)cc(c1)C[C@H](NC(=O)[C@H](C(C)C)N(C)C(=O)CN1C(=O)[C@H]3N[C@H]3C1=O)C(=O)N1CCC[C@H](N1)C(=O)OCC(C)(C)C2 [Example 98] . Its IC50 was 0.1 to 1 µM

What the record says about CCn1c(-c2cnccc2COC)c2c3cc(ccc31)-c1cccc(c1)C[C@H](NC(=O)[C@H](C(C)C)N1CC[C@@H](CN=C=NCCOC)C1)C(=O)N1CCC[C@H](N1)C(=O)OCC(C)(C)C2 [Example 80] : IC50 is 1 to 10 µM

Form field IC50, entry CCn1c(-c2cnccc2COC)c2c3cc(ccc31)-c1cc(O)cc(c1)C[C@H](NC(=O)[C@H](C(C)C)N(C)C(=O)N1CCCN(C(=O)[C@@H]3CN3)CC1)C(=O)N1CCC[C@H](N1)C(=O)OCC(C)(C)C2 [Example 45] : 0.01 to 0.1 µM

Quick note, IC50 for CCn1c(-c2cnccc2COC)c2c3cc(ccc31)-c1cc(O)cc(c1)C[C@H](NC(=O)[C@H](C(C)C)N(C)C(=O)[C@H]1CCN(C(=O)[C@@H]3CO3)C1)C(=O)N1CCC[C@H](N1)C(=O)OCC(C)(C)C2 [Example 31] landed at 0.1 to 1 µM

Just so you know, measured IC50 for CCn1c(-c2cnccc2COC)c2c3cc(ccc31)-c1cccc(c1)C[C@H](NC(=O)[C@H](C(C)C)N(C)C(=O)CCN=C=Nc1ccc(N(C)C)cc1)C(=O)N1CCC[C@H](N1)C(=O)OCC(C)(C)C2 [Example 66] came out at 0.1 to 1 µM

IC50 reading for CCn1c(-c2cccnc2[C@H](C)OC)c2c3cc(ccc31)-c1cccc(c1)C[C@H](NC(=O)[C@H](C(C)C)N1CC[C@@H](CN=C=NCCOC)C1)C(=O)N1CCC[C@H](N1)C(=O)OCC(C)(C)C2 [Example 121] : 0.1 to 1 µM

Please fill in: IC50 reported for CCn1c(-c2cnccc2COC)c2c3cc(ccc31)-c1cc(O)cc(c1)C[C@H](NC(=O)[C@H](C(C)C)N(C)C(=O)N1CCCN(C(=O)[C@H]3CN3)CC1)C(=O)N1CCC[C@H](N1)C(=O)OCC(C)(C)C2 [Example 44] = 0.01 to 0.1 µM

// CCn1c(-c2cccnc2COC)c2c3cc(ccc31)-c1cc(O)cc(c1)C[C@H](NC(=O)[C@H](C(C)C)N(C)C(=O)CNC1=NCCO1)C(=O)N1CCC[C@H](N1)C(=O)OCC(C)(C)C2 [Example 28] : IC50 value = 1 to 10 µM

Lab note: measured IC50 of CCn1c(-c2cnccc2COC)c2c3cc(ccc31)-c1cccc(c1)C[C@H](NC(=O)[C@H](C(C)C)N(C)C(=O)CCN=C=Nc1ccccc1COC)C(=O)N1CCC[C@H](N1)C(=O)OCC(C)(C)C2 [Example 63] was 1 to 10 µM

The reported IC50 of the molecule CCn1c(-c2cnccc2COC)c2c3cc(ccc31)-c1cc(O)cc(c1)C[C@H](NC(=O)[C@H](C(C)C)N(C)C(=O)CCNC1=NCCO1)C(=O)N1CCC[C@H](N1)C(=O)OCC(C)(C)C2 [Example 120] was 0.01 to 0.1 µM

Value of IC50 reported for the molecule CCn1c(-c2cccnc2[C@H](C)OC)c2c3cc(ccc31)-c1cc(O)cc(c1)C[C@H](NC(=O)[C@H](C(C)C)N1CC[C@@]3(CCC(C(=O)[C@@H]4N[C@@H]4C4CC4)C3)C1=O)C(=O)N1CCC[C@H](N1)C(=O)OCC(C)(C)C2 (some centres unmarked) [Example 128] is 0.01 to 0.1 µM

molecule CCn1c(-c2cnccc2COC)c2c3cc(ccc31)-c1cc(O)cc(c1)C[C@H](NC(=O)[C@H](C(C)C)N(C)C(=O)C1CCN(C(=O)[C@@H]3CN3)CC1)C(=O)N1CCC[C@H](N1)C(=O)OCC(C)(C)C2 [Example 4] , IC50 observed: 0.01 to 0.1 µM

Briefly, IC50 measured for CCn1c(-c2cnccc2COC)c2c3cc(ccc31)-c1cc(O)cc(c1)C[C@H](NC(=O)[C@H](C(C)C)N(C)C(=O)C1CCN(C(=O)[C@H]3CN3)CC1)C(=O)N1CCC[C@H](N1)C(=O)OCC(C)(C)C2 [Example 3] : 0.01 to 0.1 µM

Consider CCn1c(-c2cnccc2COC)c2c3cc(ccc31)-c1cc(O)cc(c1)C[C@H](NC(=O)[C@H](C(C)C)N(C)C(=O)[C@H]1CCN(C(=O)[C@H]3CN3)C1)C(=O)N1CCC[C@H](N1)C(=O)OCC(C)(C)C2 [Example 1] . Its measured IC50 is 0.1 to 1 µM

Item: CCn1c(-c2cnccc2COC)c2c3cc(ccc31)-c1cccc(c1)C[C@H](NC(=O)[C@H](C(C)C)N1CC[C@H](CN=C=Nc3ccc(OC)cc3)C1)C(=O)N1CCC[C@H](N1)C(=O)OCC(C)(C)C2 [Example 81] | IC50: > 10 µM

IC50 in this record for CCn1c(-c2cnccc2COC)c2c3cc(ccc31)-c1cc(O)cc(c1)C[C@H](NC(=O)[C@H](C(C)C)N(C)C(=O)CCN(C)C(=O)[C@H]1CN1)C(=O)N1CCC[C@H](N1)C(=O)OCC(C)(C)C2 (single isomer, unassigned) [Example 41] : 0.01 to 0.1 µM
